target of assay: Hfq V22A (Escherichia coli, UniProt P0A6X3 1-102, V22A)
experiment description: ITC; 5 mM MgCl2; N 1.02 RNA/hexamer; second weaker event offset; ITC: 20 mM Tris-HCl pH 7.5, 100 mM NaCl, 20 mM KCl, 30°C; plus 5 mM MgCl2 for U6; Hfq hexamer 10-18 µM in cell
settings: protein: recombinant; chain copies: 6; single strand
measure: pKd
Keep in mind that pKd stands for -log10 of concentration in molar terms.

Name the recorded pKd for UUUUUU (ssRNA) [U6] .
7.25
